Known gcPBM binding intensity (ln) of a selection of sequences
- System: PfAP2-LT AP2 domain (GST-tagged)
- Assay: gcPBM binding intensity (ln(normalized median fluorescence intensity)); higher = stronger DNA binding
The full ranking holds about 25,000 sequences; the median of “ln(normalized median fluorescence intensity)” is about 8.9, and the highest 2% start at about 10. This is one part of a sample in which the highest values are shown more often than they occur.
Keep the answer to the number alone.

Example entries begin here.
> print(dat)
                            sequence.record                  readout.kind  reported
1  AAAATACACAGACACACACACATATAAATAAATATT [CACACA_site7871]  gcPBM binding intensity (ln)      9.79
2  GAAATGGGTAAACATACACACACACCGATATATATA [CACACA_site8610]  gcPBM binding intensity (ln)      9.87
3  AAAAAAAACATACATACACACACATAAATATATATA [CACACA_site8864]  gcPBM binding intensity (ln)      9.72

Inquiry: Give reported gcPBM binding intensity (ln) value for AATGGGTAAACATACACACACACATCTATATTTATA [CACACA_site7025]
Reply text: 9.78

Inquiry: Respond only with gcPBM binding intensity (ln) recorded for TACATATTTATATACACACACACACGGATATTTATA [CACACA_site7239]
Reply text: 9.87

Inquiry: Specify reported gcPBM binding intensity (ln) for the sequence shown: AAAATACCCGGACACACACACATATATATATATATT [CACACA_site6137]
Reply text: 9.88

---

- System: PfAP2-LT AP2 domain (GST-tagged)
- Assay: gcPBM binding intensity (ln(normalized median fluorescence intensity)); higher = stronger DNA binding
The full ranking holds about 25,000 sequences; the median of “ln(normalized median fluorescence intensity)” is about 8.9, and the highest 2% start at about 10. The list comes from a sample in which the highest values are over-represented; it also holds close analogues and randomly drawn sequences.
Property: gcPBM binding intensity (ln); scope: individual sequences
Output spec: single numeric token, no unit.

See these solved cases before continuing.
> print(dat)
                            sequence.record                      study.target                  readout.kind  reported
1  ACATACATACCCCCACGTACGTACCGAAACACCACC [XGTACX_site1982]  PfAP2-LT AP2 domain (GST-tagged)  gcPBM binding intensity (ln)      9.74
2  AAAAAAAAAAAAAACACACACATATCTATAATATAT [CACACA_site7481]  PfAP2-LT AP2 domain (GST-tagged)  gcPBM binding intensity (ln)      9.35

Attention now turns to another entry.
Inquiry: Give gcPBM binding intensity (ln) for the following sequence: AATCCACAAAGACACACACACACATATATATATATA [CACACA_site1269]
Reply text: 10.2

---

- Test system: PfAP2-LT AP2 domain (GST-tagged)
- Assay: gcPBM binding intensity (ln(normalized median fluorescence intensity)); higher = stronger DNA binding
Whole data set: some 25,000 sequences, median “ln(normalized median fluorescence intensity)” near 8.9, cut for the highest 2% near 10. This is one part of a sample in which the highest values are shown more often than they occur.
Readout Kind: gcPBM binding intensity (ln)
// no unit, no text: just the number

Example entries begin here.
> print(dat)
                            sequence.record                      study.target                  readout.kind  reported
1  AGTATACGCAGACACACACACACATATATATATATA [CACACA_site1735]  PfAP2-LT AP2 domain (GST-tagged)  gcPBM binding intensity (ln)      10.2
2  CAAGCACACGGACACACACACACACGCGCACGCACA [CACACA_site6307]  PfAP2-LT AP2 domain (GST-tagged)  gcPBM binding intensity (ln)      10.3
3  AAAATTGGTGAAAATGAAAATATGATTATATGTATA [XGTACX_negctrl_site505]  PfAP2-LT AP2 domain (GST-tagged)  gcPBM binding intensity (ln)      8.56
4  AAAATGAACAAACACACACACATATATATATATATA [CACACA_site2403]  PfAP2-LT AP2 domain (GST-tagged)  gcPBM binding intensity (ln)      10.3
5  AAAAAAACATGAAACACACACAAATATATATATATA [CACACA_site1884]  PfAP2-LT AP2 domain (GST-tagged)  gcPBM binding intensity (ln)      9.53
6  AAACAAAATGGTAACACACACATATATAAATATGTA [CACACA_site6994]  PfAP2-LT AP2 domain (GST-tagged)  gcPBM binding intensity (ln)      9.38

Inquiry: Give the value of gcPBM binding intensity (ln) reported for the following: TGCAAGGAACAACACACACACACATAAATGTATATA [CACACA_site8149]
Reply text: 10.2

Inquiry: Please give the documented gcPBM binding intensity (ln) of GGAATATTTATACATACACACATATATTTATTTATA [CACACA_site6883]
Reply text: 8.91

Inquiry: Please give measured gcPBM binding intensity (ln) of the following entry: ATAAAATTATATACTCGTACACAAAAAAAAAAAATA [XGTACX_site6035]
Reply text: 8.77

meta.source: the supplement of paper PMC11417369
